Hey, just so you know, these numbers are from PubChem BioAssay AID1851.

target: Cytochrome P450 2D6 (Homo sapiens) (UniProt P10635); experiment: Cytochrome panel assay with activity outcomes; details: recombinant CYP, pro-luciferin dealkylation, luminescence, p450-cyp2d6; series mostly up to 57.1 µM
Sequence (P10635 whole entry, looked up): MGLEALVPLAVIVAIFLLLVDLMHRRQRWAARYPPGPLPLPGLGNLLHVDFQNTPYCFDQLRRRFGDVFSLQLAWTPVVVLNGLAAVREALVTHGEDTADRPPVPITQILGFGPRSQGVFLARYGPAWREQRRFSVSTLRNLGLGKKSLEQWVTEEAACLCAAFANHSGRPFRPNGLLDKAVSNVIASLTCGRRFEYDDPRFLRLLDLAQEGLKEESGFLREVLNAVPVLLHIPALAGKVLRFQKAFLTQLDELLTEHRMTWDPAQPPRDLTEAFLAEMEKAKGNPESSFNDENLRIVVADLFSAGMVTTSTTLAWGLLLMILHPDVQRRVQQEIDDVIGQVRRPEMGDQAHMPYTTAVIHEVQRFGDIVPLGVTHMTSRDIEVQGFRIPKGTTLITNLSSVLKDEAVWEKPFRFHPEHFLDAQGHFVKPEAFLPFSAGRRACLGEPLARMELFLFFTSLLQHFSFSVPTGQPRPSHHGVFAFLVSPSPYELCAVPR
Out of some 16,000 compounds screened, about 2,600 (16%) were called active. Another 20% or so got no clear call; they are omitted. The call rests on the fitted dose curve; in most records, active means well fitted curve in the direction sought with a large enough effect; inconclusive means small, poorly fitted or top-dose-only effect, or effect the other way; inactive means no such curve, though single readings can be large or run the other way. These entries were drawn from the full list.
Answer with one of the outcomes given here: YES for active, NO for inactive

Field: example entries. Status: answers known.
[[record]]
molecule = "COc1ccc(-n2c(C)n[nH]c2=O)cc1OC"
classification = "NO"

[[record]]
molecule = "O=C(NCc1ccccc1)c1onc(CSc2ccc(F)cc2)c1C(=O)NCCCN1CCOCC1"
classification = "YES"

[[record]]
molecule = "COCCNC(=O)c1onc(CSc2ccc(Cl)cc2)c1C(=O)O"
classification = "NO"

[[record]]
molecule = "CC1(C)O[C@H]2C[C@@H]3[C@H]4CCC5=CC(=O)CC[C@@]5(C)[C@]4(F)[C@@H](O)C[C@@]3(C)[C@@]2(C(=O)CCl)O1"
classification = "NO"

[[record]]
molecule = "O=c1[nH][nH]c(C(F)(F)F)c1C=Nc1cccc(Cl)c1"
classification = "NO"


Any idea what this test logged for N#Cc1ccc(C(c2nnnn2Cc2ccccc2)N2CCCC2)cc1 (stereo not given) ?
YES

Any idea what this test logged for "Cn1c(SCC(=O)NC2CC2)nnc1-c1cccc(NC(=O)c2ccccc2F)c1" ?
NO

Any idea what this test logged for "O=C1CCc2cc(OCCCCc3nnnn3C3CCCCC3)ccc2N1" ?
NO

Any idea what this test logged for "O=c1c(-c2cc(F)cc(F)c2)nc2cnc(N3CCOCC3)nc2n1C1CC1" ?
NO

Any idea what this test logged for "O=C(c1cc(O)c(O)c([N+](=O)[O-])c1)c1ccccc1F" ?
NO

----------
Molecular target: Cytochrome P450 2D6 (Homo sapiens) (UniProt P10635)
Assay: Cytochrome panel assay with activity outcomes
Conditions: recombinant CYP, pro-luciferin dealkylation, luminescence, p450-cyp2d6; series mostly up to 57.1 µM
Procedure: The P450 gene superfamily is involved in the metabolism and clearance of xenobiotics. This assay used various human CYP P450 isozymes to measure the dealkylation of various pro-luciferin substrates to luciferin. The luciferin is then measured by luminescence after the addition of a luciferase detection reagent. […] Inhibitors and some substrates limit the production of luciferin, and decrease measured luminescence. […] 8, Detection, 1 sec, ViewLux luminescent read […]
About 2,600 (16%) of roughly 16,000 compounds were called active. Another 20% or so got no clear call; they are omitted. Calls follow the shape of the dose curve; as a rule, active = well fitted curve in the direction sought with a large enough effect; inconclusive = small, poorly fitted or top-dose-only effect, or effect the other way; inactive = no such curve, though single readings can be large or run the other way. These entries were drawn from the full list.
Answer with one of the outcomes given here: 1 for active, -1 for inactive

Field: example entries. Status: answers known.
[[record]]
molecule = "CCn1c(SCC(=O)NC2CCCCC2)nnc1-c1cc2cccc(OC)c2o1"
classification = -1

[[record]]
molecule = "CC(=O)n1nc(-c2ccco2)nc1N"
classification = -1

[[record]]
molecule = "O=c1c(-c2ccccc2)nc2cnc(N3CCNCC3)nc2n1C1CC1"
classification = -1

[[record]]
molecule = "C[C@@H](C(=O)Nc1ccc2ccccc2c1)[C@H]1C[C@]1(C)[C@H](NS(=O)(=O)c1ccc2ccccc2c1)c1ccccc1"
classification = 1

[[record]]
molecule = "CCn1c2ccccc2c2cc(NC(=O)CSc3nnc(-c4ccc(OC)c(OC)c4)n3N)ccc21"
classification = 1

[[record]]
molecule = "O=C(Oc1ccc(C(=S)N2CCOCC2)cc1Br)c1cc(Cl)ccc1Cl"
classification = -1

[[record]]
molecule = "COc1ccc(C)cc1NC(=O)CSc1nnc(-c2ccc(OC)c(OC)c2)n1N"
classification = -1

[[record]]
molecule = "Cc1ccc(-c2cc(-c3nnc(SCC(=O)NC(C)C(C)C)n3N)c3ccccc3n2)cc1 (centres undefined)"
classification = -1


Any idea what this test logged for "C[C@@H](C(=O)Nc1ccc2ccccc2c1)[C@@H]1C[C@@]1(C)[C@@H](NS(=O)(=O)c1ccc2ccccc2c1)c1ccccc1" ?
-1
